molecular target: NAD(P)H dehydrogenase [quinone] 1 (Mus musculus) (UniProt Q64669); experiment: Induction of QR1-mediated cytoprotective activity in mouse Hepa-1c1c7 cells at 50 uM assessed as cell survival; type: cell-based
Sequence (Q64669 whole entry): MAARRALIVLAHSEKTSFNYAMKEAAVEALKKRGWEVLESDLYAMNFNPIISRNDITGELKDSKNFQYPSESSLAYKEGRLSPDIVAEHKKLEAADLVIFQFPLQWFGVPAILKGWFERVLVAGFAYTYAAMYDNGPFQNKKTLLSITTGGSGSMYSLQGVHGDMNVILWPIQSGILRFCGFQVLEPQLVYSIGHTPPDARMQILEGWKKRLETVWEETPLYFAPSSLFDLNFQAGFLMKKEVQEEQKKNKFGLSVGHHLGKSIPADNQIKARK
assay_metric: Survival (%)
Numbers only, in %.

mol: O=[N+]([O-])c1ccc(-c2nsc(-c3ccc([N+](=O)[O-])cc3)n2)cc1
quantitative_result: 78.9
//
mol: CCCCc1ccc(-c2nsc(-c3ccc(CCCC)cc3)n2)cc1
quantitative_result: 100
//
mol: c1cncc(-c2nsc(-c3cccnc3)n2)c1
quantitative_result: 73.5
//
mol: N#Cc1ccc(-c2nsc(-c3ccc(C#N)cc3)n2)cc1
quantitative_result: 46.2
//
mol: Nc1ccc(-c2nsc(-c3ccc(N)cc3)n2)cc1
quantitative_result: 66.1

List the reported Survival of each compound below.
1. Cc1cccc(-c2nsc(-c3cccc(C)c3)n2)c1
2. Brc1cccc(-c2nsc(-c3cccc(Br)c3)n2)c1
3. c1ccc2cc(-c3nsc(-c4ccc5ccccc5c4)n3)ccc2c1
4. c1cc(-c2nsc(-c3ccncc3)n2)ccn1
5. Ic1ccccc1-c1nsc(-c2ccccc2I)n1

Found:
33.7
79.3
88.8
86.6
48.8
